# Tested on: Tryptase, from human lung
# test name: Enzymatic assay, tryptase
# test settings: at 100 μM
Where a SMILES comes first, the peptide text is derived from it.
quantity measured: Tryptase at 100 μM % (%)

- molecule: "CC[C@H](C)[C@@H]1NC(=O)[C@H](C)NC(=O)[C@@H]2CCCN2C(=O)[C@H](CC(=O)O)NC(=O)[C@H](CO)NC(=O)[C@H](CCCCN)NC(=O)[C@H]([C@@H](C)O)NC(=O)[C@@H]2CSSC[C@H](NC1=O)C(=O)N[C@@H](CCCNC(=N)N)C(=O)N1CCC[C@@H]1C(=O)N1CCC[C@H]1C(=O)N[C@@H]([C@@H](C)CC)C(=O)N2 [Ex. 52] (HELM PEPTIDE1{I.C.T.K.S.D.P.A.I.C.R.[dP].P}$PEPTIDE1,PEPTIDE1,2:R3-10:R3|PEPTIDE1,PEPTIDE1,1:R1-13:R2$$$V2.0)"
  target or test system: "Tryptase, from human lung"
  reading: 84.2
- molecule: "CC[C@H](C)[C@@H]1NC(=O)[C@@H]2CCCN2C(=O)[C@@H]2CCCN2C(=O)[C@H](CC(=O)O)NC(=O)[C@H](CO)NC(=O)[C@H](CCCCN)NC(=O)[C@H]([C@@H](C)O)NC(=O)[C@@H]2CSSC[C@H](NC1=O)C(=O)N[C@@H](Cc1ccc(O)cc1)C(=O)N1CCC[C@@H]1C(=O)N1CCC[C@H]1C(=O)N[C@@H](CC1CCCCC1)C(=O)N2 [Ex. 36] (HELM PEPTIDE1{[Cha].C.T.K.S.D.P.P.I.C.Y.[dP].P}$PEPTIDE1,PEPTIDE1,2:R3-10:R3|PEPTIDE1,PEPTIDE1,1:R1-13:R2$$$V2.0)"
  target or test system: "Tryptase, from human lung"
  reading: 73.3
- molecule: "CCCC[C@@H]1NC(=O)[C@@H]2CCCN2C(=O)[C@H]2CCCN2C(=O)[C@H](Cc2ccccc2)NC(=O)[C@@H]2CSSC[C@H](NC1=O)C(=O)N[C@@H]([C@@H](C)O)C(=O)N[C@@H](C)C(=O)N[C@@H](CO)C(=O)N[C@@H]([C@@H](C)CC)C(=O)N1CCC[C@H]1C(=O)N1CCC[C@H]1C(=O)N[C@@H](CCC(N)=O)C(=O)N2 [Ex. 90] (HELM PEPTIDE1{[Nle].C.T.A.S.I.P.P.Q.C.F.[dP].P}$PEPTIDE1,PEPTIDE1,2:R3-10:R3|PEPTIDE1,PEPTIDE1,1:R1-13:R2$$$V2.0)"
  target or test system: "Tryptase, from human lung"
  reading: 5

====

# target or test system: Chymase, from human skin (Homo sapiens)
# Sequence (P23946 22-247): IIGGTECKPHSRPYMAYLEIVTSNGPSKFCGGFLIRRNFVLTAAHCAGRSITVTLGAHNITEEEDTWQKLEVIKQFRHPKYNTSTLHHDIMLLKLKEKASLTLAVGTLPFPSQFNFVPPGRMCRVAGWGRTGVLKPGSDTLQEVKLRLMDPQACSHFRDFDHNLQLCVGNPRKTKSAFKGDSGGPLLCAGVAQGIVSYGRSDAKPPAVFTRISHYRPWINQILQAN
# test name: Enzymatic assay, chymase
Where a SMILES comes first, the peptide text is derived from it.

- compound: "CCCC[C@@H]1NC(=O)[C@@H]2CCCN2C(=O)[C@H]2CCCN2C(=O)[C@H](c2ccccc2)NC(=O)[C@@H]2CSSC[C@H](NC1=O)C(=O)N[C@@H]([C@@H](C)O)C(=O)N[C@@H](C)C(=O)N[C@@H](CO)C(=O)N[C@@H]([C@@H](C)CC)C(=O)N1CCC[C@H]1C(=O)N1CCC[C@H]1C(=O)N[C@@H](CCC(N)=O)C(=O)N2 [Ex. 98] (HELM PEPTIDE1{[Nle].C.T.A.S.I.P.P.Q.C.[Phg].[dP].P}$PEPTIDE1,PEPTIDE1,2:R3-10:R3|PEPTIDE1,PEPTIDE1,1:R1-13:R2$$$V2.0)"
  target or test system: "Chymase, from human skin (Homo sapiens)"
  Chymase at 100 μM % [%]: 0
- compound: "CC[C@H](C)[C@@H]1NC(=O)[C@@H]2CCCN2C(=O)[C@@H]2CCCN2C(=O)[C@H](CC(=O)O)NC(=O)[C@H](CO)NC(=O)[C@H](CCCCN)NC(=O)[C@H]([C@@H](C)O)NC(=O)[C@@H]2CSSC[C@H](NC1=O)C(=O)N[C@@H](CO)C(=O)N[C@H](C)C(=O)N[C@@H](CC(=O)O)C(=O)N[C@@H](Cc1ccccc1)C(=O)N2 [Ex. 68] (HELM PEPTIDE1{F.C.T.K.S.D.P.P.I.C.S.[dA].D}$PEPTIDE1,PEPTIDE1,2:R3-10:R3|PEPTIDE1,PEPTIDE1,1:R1-13:R2$$$V2.0)"
  target or test system: "Chymase, from human skin (Homo sapiens)"
  Chymase at 100 μM % [%]: 0

====

# target or test system: Trypsin, from human pancreas (Homo sapiens, UniProt P07477)
# test name: Enzymatic assay, trypsin
# test settings: at 100 μM
Where a SMILES comes first, the peptide text is derived from it.

- compound: "CCCC[C@@H]1NC(=O)[C@@H]2CCCN2C(=O)[C@H]2CCCN2C(=O)[C@H](Cc2ccc(O)cc2)NC(=O)[C@@H]2CSSC[C@H](NC1=O)C(=O)N[C@@H]([C@@H](C)O)C(=O)N[C@@H](C)C(=O)N[C@@H](CO)C(=O)N[C@@H](CC(C)(C)C)C(=O)N1CCC[C@H]1C(=O)N1CCC[C@H]1C(=O)N[C@@H](CCC(N)=O)C(=O)N2 [Ex. 85] (HELM PEPTIDE1{[Nle].C.T.A.S.[CC(C)(C)C[C@H](N[*:1])C(=O)[*:2]].P.P.Q.C.Y.[dP].P}$PEPTIDE1,PEPTIDE1,2:R3-10:R3|PEPTIDE1,PEPTIDE1,1:R1-13:R2$$$V2.0)"
  Trypsin at 100 μM % (%): 0
- compound: "CCCC[C@@H]1NC(=O)[C@@H]2CCCN2C(=O)[C@H]2CCCN2C(=O)[C@H](Cc2ccccc2)NC(=O)[C@@H]2CSSC[C@H](NC1=O)C(=O)N[C@@H]([C@@H](C)O)C(=O)N[C@@H](C)C(=O)N[C@@H](CO)C(=O)N[C@@H]([C@@H](C)CC)C(=O)N1CCC[C@H]1C(=O)N1CCC[C@H]1C(=O)N[C@@H](CCC(N)=O)C(=O)N2 [Ex. 90] (HELM PEPTIDE1{[Nle].C.T.A.S.I.P.P.Q.C.F.[dP].P}$PEPTIDE1,PEPTIDE1,2:R3-10:R3|PEPTIDE1,PEPTIDE1,1:R1-13:R2$$$V2.0)"
  Trypsin at 100 μM % (%): 5.2
- compound: "CCCC[C@@H]1NC(=O)[C@H](CC(=O)O)NC(=O)[C@H]2CCCN2C(=O)[C@H](Cc2ccc(O)cc2)NC(=O)[C@@H]2CSSC[C@H](NC1=O)C(=O)N[C@@H]([C@@H](C)O)C(=O)N[C@@H](C)C(=O)N[C@@H](CO)C(=O)N[C@@H]([C@@H](C)CC)C(=O)N1CCC[C@H]1C(=O)N1CCC[C@H]1C(=O)N[C@@H](CCC(N)=O)C(=O)N2 [Ex. 121] (HELM PEPTIDE1{[Nle].C.T.A.S.I.P.P.Q.C.Y.[dP].D}$PEPTIDE1,PEPTIDE1,2:R3-10:R3|PEPTIDE1,PEPTIDE1,1:R1-13:R2$$$V2.0)"
  Trypsin at 100 μM % (%): 12.8
- compound: "CC[C@H](C)[C@@H]1NC(=O)[C@@H]2CCCN2C(=O)[C@@H]2CCCN2C(=O)[C@H](CC(=O)O)NC(=O)[C@H](CO)NC(=O)[C@H](CCCCN)NC(=O)[C@H]([C@@H](C)O)NC(=O)[C@@H]2CSSC[C@H](NC1=O)C(=O)N[C@@H]([C@@H](C)O)C(=O)N1CCC[C@@H]1C(=O)N1CCC[C@H]1C(=O)N[C@@H](CCc1ccccc1)C(=O)N2 [Ex. 28] (HELM PEPTIDE1{[O=C([C@H](CCc1ccccc1)N[*:1])[*:2]].C.T.K.S.D.P.P.I.C.T.[dP].P}$PEPTIDE1,PEPTIDE1,2:R3-10:R3|PEPTIDE1,PEPTIDE1,1:R1-13:R2$$$V2.0)"
  Trypsin at 100 μM % (%): 95
- compound: "CC[C@H](C)[C@@H]1NC(=O)[C@@H]2CCCN2C(=O)[C@@H]2CCCN2C(=O)[C@H](CC(=O)O)NC(=O)[C@H](CO)NC(=O)[C@H](CCCCN)NC(=O)[C@H]([C@@H](C)O)NC(=O)[C@@H]2CSSC[C@H](NC1=O)C(=O)N[C@@H](Cc1ccc(O)cc1)C(=O)N1CCC[C@@H]1C(=O)N1CCC[C@H]1C(=O)N[C@@H](C1CCCCC1)C(=O)N2 [Ex. 40] (HELM PEPTIDE1{[O=C([C@@H](N[*:1])C1CCCCC1)[*:2]].C.T.K.S.D.P.P.I.C.Y.[dP].P}$PEPTIDE1,PEPTIDE1,2:R3-10:R3|PEPTIDE1,PEPTIDE1,1:R1-13:R2$$$V2.0)"
  Trypsin at 100 μM % (%): 94
- compound: "CC[C@H](C)[C@@H]1NC(=O)[C@H](CO)NC(=O)[C@H](C)NC(=O)[C@H]([C@@H](C)O)NC(=O)[C@@H]2CSSC[C@H](NC(=O)[C@H](CCC(N)=O)NC(=O)[C@@H]3CCCN3C(=O)[C@@H]3CCCN3C1=O)C(=O)N[C@@H](Cc1ccc(O)cc1)C(=O)N1CCC[C@@H]1C(=O)N1CCC[C@H]1C(=O)N[C@@H](CCc1ccccc1)C(=O)N2 [Ex. 103] (HELM PEPTIDE1{[O=C([C@H](CCc1ccccc1)N[*:1])[*:2]].C.T.A.S.I.P.P.Q.C.Y.[dP].P}$PEPTIDE1,PEPTIDE1,2:R3-10:R3|PEPTIDE1,PEPTIDE1,1:R1-13:R2$$$V2.0)"
  Trypsin at 100 μM % (%): 6.4
- compound: "CC[C@H](C)[C@@H]1NC(=O)[C@H](C)NC(=O)[C@@H]2CCCN2C(=O)[C@H](CC(=O)O)NC(=O)[C@H](CO)NC(=O)[C@H](CCCCN)NC(=O)[C@H]([C@@H](C)O)NC(=O)[C@@H]2CSSC[C@H](NC1=O)C(=O)N[C@@H](CCCNC(=N)N)C(=O)N1CCC[C@@H]1C(=O)N1CCC[C@H]1C(=O)N[C@@H]([C@@H](C)CC)C(=O)N2 [Ex. 52] (HELM PEPTIDE1{I.C.T.K.S.D.P.A.I.C.R.[dP].P}$PEPTIDE1,PEPTIDE1,2:R3-10:R3|PEPTIDE1,PEPTIDE1,1:R1-13:R2$$$V2.0)"
  Trypsin at 100 μM % (%): 86
- compound: "CC[C@H](C)[C@@H]1NC(=O)[C@@H]2CCCN2C(=O)[C@@H]2CCCN2C(=O)[C@H](CC(=O)O)NC(=O)[C@H](CO)NC(=O)[C@H](CCCCN)NC(=O)[C@H]([C@@H](C)O)NC(=O)[C@@H]2CSSC[C@H](NC1=O)C(=O)N[C@@H](CCCNC(=N)N)C(=O)N1CCC[C@@H]1C(=O)N1CCC[C@H]1C(=O)N[C@@H](Cc1ccccc1Cl)C(=O)N2 [Ex. 13] (HELM PEPTIDE1{[O=C([C@H](Cc1ccccc1Cl)N[*:1])[*:2]].C.T.K.S.D.P.P.I.C.R.[dP].P}$PEPTIDE1,PEPTIDE1,2:R3-10:R3|PEPTIDE1,PEPTIDE1,1:R1-13:R2$$$V2.0)"
  Trypsin at 100 μM % (%): 95.0

Just for reference, patent US8658604B2 is where these values come from.
